So I've got a bunch of compounds here, and I need their Measured Concentration, -70°C for 14 days values.
# test protocol: Stability of analytes in rat plasma QC samples under storage conditions
# Type: in vitro ADME
# test settings: rat plasma, n=6; low QC: spiked 20 ng/mL glycyrrhizic acid; 10 liquiritin; 2 emodin, gallic acid, ononin, schisandrin, stilbene glycoside; 1 isoliquiritigenin, liquiritigenin, rhein, verbascoside
Numbers only; they are read as ng/mL.

Dear colleague, I am looking for the recorded Measured Concentration, -70°C for 14 days of the following compound: O=C1C[C@@H](c2ccc(O[C@@H]3O[C@H](CO)[C@@H](O)[C@H](O)[C@H]3O)cc2)Oc2cc(O)ccc21 [liquiritin] 10.04

Dear colleague, I am looking for the recorded Measured Concentration, -70°C for 14 days of the following compound: OC[C@H]1O[C@@H](Oc2c(O)cc(O)cc2/C=C/c2ccc(O)cc2)[C@H](O)[C@@H](O)[C@@H]1O [stilbene glycoside] 1.99

Dear colleague, I am looking for the recorded Measured Concentration, -70°C for 14 days of the following compound: CC1(C)[C@@H](O[C@H]2O[C@H](C(=O)O)[C@@H](O)[C@H](O)[C@H]2O[C@@H]2O[C@H](C(=O)O)[C@@H](O)[C@H](O)[C@H]2O)CC[C@]2(C)[C@H]3C(=O)C=C4[C@@H]5C[C@@](C)(C(=O)O)CC[C@]5(C)CC[C@@]4(C)[C@]3(C)CC[C@@H]12 [glycyrrhizic acid] 18.77

Dear colleague, I am looking for the recorded Measured Concentration, -70°C for 14 days of the following compound: O=C(O)c1cc(O)c(O)c(O)c1 [gallic acid] 1.99

Dear colleague, I am looking for the recorded Measured Concentration, -70°C for 14 days of the following compound: COc1ccc(-c2coc3cc(O[C@@H]4O[C@H](CO)[C@@H](O)[C@H](O)[C@H]4O)ccc3c2=O)cc1 [ononin] 1.95

Dear colleague, I am looking for the recorded Measured Concentration, -70°C for 14 days of the following compound: COc1cc2c(c(OC)c1OC)-c1c(cc(OC)c(OC)c1OC)C[C@](C)(O)[C@@H](C)C2 [schisandrin] 1.77

Dear colleague, I am looking for the recorded Measured Concentration, -70°C for 14 days of the following compound: O=C1C[C@@H](c2ccc(O)cc2)Oc2cc(O)ccc21 [liquiritigenin] 0.88

====

# test protocol: Pharmacokinetic study in rats after oral administration of TMYX extract (HPLC-MS/MS of plasma)
# Assay type: in vivo, Sprague–Dawley rats
# test settings: male, Sprague-Dawley; rat plasma, oral TMYX extract 8.3 g/kg single dose, n=6; read-out: AUC (0-tn)
So I've got a bunch of compounds here, and I need their AUC values.
Numbers only; they are read as ng·h/mL.

Dear colleague, I am looking for the recorded AUC of the following compound: O=C(O)c1cc(O)c(O)c(O)c1 [gallic acid] 215

Dear colleague, I am looking for the recorded AUC of the following compound: COc1cc2c(c(OC)c1OC)-c1c(cc(OC)c(OC)c1OC)C[C@](C)(O)[C@@H](C)C2 [schisandrin] 411

Dear colleague, I am looking for the recorded AUC of the following compound: COc1ccc(-c2coc3cc(O[C@@H]4O[C@H](CO)[C@@H](O)[C@H](O)[C@H]4O)ccc3c2=O)cc1 [ononin] 58.2

Dear colleague, I am looking for the recorded AUC of the following compound: O=C(/C=C/c1ccc(O)cc1)c1ccc(O)cc1O [isoliquiritigenin] 410
